We begin with a simple list: items and their reported IC50.
- SYSTEM TESTED: FAAH (Rattus norvegicus)
- Construct: For the assay of FAAH activity in rat brain membrane (RBM) homogenates; tissue Charles River (animals); host or cells: rat whole brain, membrane fraction
- Sequence (P97612 whole entry): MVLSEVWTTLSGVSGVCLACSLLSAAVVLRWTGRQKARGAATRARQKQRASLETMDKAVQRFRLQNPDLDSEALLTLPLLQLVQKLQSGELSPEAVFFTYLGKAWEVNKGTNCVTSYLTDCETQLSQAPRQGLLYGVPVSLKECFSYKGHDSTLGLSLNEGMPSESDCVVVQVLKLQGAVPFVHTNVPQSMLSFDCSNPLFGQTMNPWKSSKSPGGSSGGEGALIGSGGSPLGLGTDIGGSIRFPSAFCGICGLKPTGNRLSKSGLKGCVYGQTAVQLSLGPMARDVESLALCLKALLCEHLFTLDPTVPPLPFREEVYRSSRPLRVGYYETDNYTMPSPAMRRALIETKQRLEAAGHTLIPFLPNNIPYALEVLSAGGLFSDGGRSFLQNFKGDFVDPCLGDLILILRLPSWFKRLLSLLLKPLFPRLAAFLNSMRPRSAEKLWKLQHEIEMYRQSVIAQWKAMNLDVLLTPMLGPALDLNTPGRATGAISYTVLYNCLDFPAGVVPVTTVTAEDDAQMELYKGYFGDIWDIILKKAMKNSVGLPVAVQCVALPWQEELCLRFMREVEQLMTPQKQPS
- MEASUREMENT DESCRIPTION: FAAH inhibition, rat brain membrane homogenate assay
- Format: biochemical
- TEST CONDITIONS: rat brain homogenate; average activity; read-out: Rat Brain Extract FAAH IC50

COMPOUND	IC50
COc1cc(NC(=O)C(=O)c2c(C)n(Cc3ccc(Cl)cc3)c3cc(Cl)c(C)cc23)ccn1 [Compound 93]	< 100 nM
COc1cc(NC(=O)C(=O)c2c(C)n(Cc3ccc(Cl)cc3)c3ccc(OC)c(OC)c23)ccn1 [Compound 56]	1000 to 10000 nM
COc1cc(NC(=O)C(=O)c2c(C)n(Cc3ccc(Cl)cc3)c3ccc(N(C)C)cc23)ccn1 [Compound 17]	< 100 nM
COc1cc(NC(=O)C(=O)c2c(C)n(Cc3ccc(Cl)cc3)c3ccc([N+](=O)[O-])cc23)ccn1 [Compound 19]	< 100 nM
COc1cnc2c(c1)c(C(=O)C(=O)Nc1ccnc(OC)c1)c(C)n2Cc1ncc(Cl)cc1F [Compound 34]	< 100 nM
